Method Description: Biodistribution in Daudi xenograft bearing mice
Format: in vivo, mouse
Experimental Parameters: female, CB-17 SCID, mouse, blood, iv, total radioactivity, 6h p.i., i.v.; means ± SD, n=4-5; read-out: Biodistribution blood
Where a SMILES comes first, the peptide text is derived from it. Side-chain parts run from the residue outwards. [ ]: non-standard residue; d: D form. The star is where a group is joined. DOTA = O=C(O)CN1CCN(CC(=O)O)CCN(CC(=O)*)CCN(CC(=O)O)CC1; dTyr(3-I) = N[C@H](Cc1ccc(O)c(I)c1)C(=O)O; 2Nal = N[C@@H](Cc1ccc2ccccc2c1)C(=O)O; dNMeOrn = CN[C@H](CCCN)C(=O)O; 4Abz = Nc1ccc(C(=O)O)cc1
Below is a list of entries, each paired with its recorded tissue uptake at 6 h value.
Number in %ID/g, nothing else.

C[C@@H](NC(=O)[C@@H](CCCNC(=N)N)NC(=O)CN1CCN(CC(=O)O)CCN(CC(=O)O)CCN(CC(=O)O)CC1)C(=O)Nc1ccc(C(=O)NCCC[C@@H]2C(=O)N[C@@H](CCCNC(=N)N)C(=O)N[C@@H](Cc3ccc4ccccc4c3)C(=O)NCC(=O)N[C@H](Cc3ccc(O)c(I)c3)C(=O)N2C)cc1 [[^177Lu]DOTA-r-a-ABA-iodoCPCR4, metal not drawn] (cyclo([2Nal]G[dTyr(3-I)][dNMeOrn]([4Abz-dA-dR-DOTA])R)): 0.17

Tell me the measured tissue uptake at 6 h of C[C@@H](NC(=O)[C@@H](CCCNC(=N)N)NC(=O)CN1CCN(CC(=O)O)CCN(CC(=O)O)CCN(CC(=O)O)CC1)C(=O)Nc1ccc(C(=O)NCCC[C@@H]2C(=O)N[C@@H](CCCNC(=N)N)C(=O)N[C@@H](Cc3ccc4ccccc4c3)C(=O)NCC(=O)N[C@H](Cc3ccc(O)cc3)C(=O)N2C)cc1 [[^177Lu]DOTA-r-a-ABA-CPCR4, metal not drawn] (cyclo([2Nal]G[dY][dNMeOrn]([4Abz-dA-dR-DOTA])R)) , please. 0.05
